All figures here come from patent US20160362693A1.

Tested on: Caov-3 ovarian tumor cells
Test: Viability of ovarian tumor cells after siRNA transfection (trypan blue count)
Assay type: cell-based, human
Details: 50 nM siRNA, DharmaFECT, 96 hours, vs control siRNA
Protocol: Each of the five siRNA duplexes presented in Table 2 were introduced into cultures of ovarian tumor cells at a concentration of 50 nM. Briefly, fifty to one hundred thousand tumor cells were added to each well of a 6 well plate and allowed to attach to the surface and grow for 18 hours in DMEM medium containing 10% fetal bovine serum. […] The viability of the ovarian tumor cells was assessed by counting cells with a hemocytometer following trypan blue exclusion staining. […]
# cutoff 30% applies to Response to siRNA (% growth inhibition); >= gives label 1, < gives label 0

Previously resolved entries follow.
substance	discrete label
siEVI1-979: siRNA duplex; sense 5′-gugcaaagacuguggacaauu-3′ SEQ ID NO: 9, antisense SEQ ID NO: 10 (sense GUGCAAAGACUGUGGACAAUU; antisense UUGUCCACAGUCUUUGCACUU; listed as RNA, chemistry not given here)	label 1
siEVI1-2910: siRNA duplex; sense 5′-ggaauguggaggagagaauuu-3′ SEQ ID NO: 13, antisense SEQ ID NO: 14 (sense GGAAUGUGGAGGAGAGAAUUU; antisense AUUCUCUCCUCCACAUUCCUU; listed as RNA, chemistry not given here)	label 1
siEVI1-992: siRNA duplex; sense 5′-ggacaaauguucagcacuauu-3′ SEQ ID NO: 11, antisense SEQ ID NO: 12 (sense GGACAAAUGUUCAGCACUAUU; antisense UAGUGCUGAACAUUUGUCCUU; listed as RNA, chemistry not given here)	label 1

Textbook exercise: given the entry siEVI1-2994: siRNA duplex; sense 5′-augaagaaguugaagaugauu-3′ SEQ ID NO: 15, antisense SEQ ID NO: 16 (sense AUGAAGAAGUUGAAGAUGAUU; antisense UCAUCUUCAACUUCUUCAUUU; listed as RNA, chemistry not given here) , state whether its Response to siRNA (% growth inhibition) is greater than or equal to 30%.
label 0

Textbook exercise: given the entry siEVI1-256: siRNA duplex; sense 5′-ccagauaaaugaucagauauu-3′ SEQ ID NO: 7, antisense SEQ ID NO: 8 (sense CCAGAUAAAUGAUCAGAUAUU; antisense UAUCUGAUCAUUUAUCUGGUU; listed as RNA, chemistry not given here) , state whether its Response to siRNA (% growth inhibition) is greater than or equal to 30%.
label 0

###

tested on: OVCAR3 ovarian tumor cells; assay: Viability of ovarian tumor cells after siRNA transfection (trypan blue count); format: cell-based, human; details: 50 nM siRNA, DharmaFECT, 96 hours, vs control siRNA
metric: Response to siRNA (% growth inhibition) (%)
Answer in %, number only, no unit symbol.

Before answering, review these 2 worked examples.
substance	metric	measure unit	reported result
siEVI1-2910: siRNA duplex; sense 5′-ggaauguggaggagagaauuu-3′ SEQ ID NO: 13, antisense SEQ ID NO: 14 (sense GGAAUGUGGAGGAGAGAAUUU; antisense AUUCUCUCCUCCACAUUCCUU; listed as RNA, chemistry not given here)	Response to siRNA (% growth inhibition)	%	73
siEVI1-992: siRNA duplex; sense 5′-ggacaaauguucagcacuauu-3′ SEQ ID NO: 11, antisense SEQ ID NO: 12 (sense GGACAAAUGUUCAGCACUAUU; antisense UAGUGCUGAACAUUUGUCCUU; listed as RNA, chemistry not given here)	Response to siRNA (% growth inhibition)	%	0

Response to siRNA (% growth inhibition) recorded for this substance, siEVI1-2994: siRNA duplex; sense 5′-augaagaaguugaagaugauu-3′ SEQ ID NO: 15, antisense SEQ ID NO: 16 (sense AUGAAGAAGUUGAAGAUGAUU; antisense UCAUCUUCAACUUCUUCAUUU; listed as RNA, chemistry not given here) , is 0

Response to siRNA (% growth inhibition) recorded for this substance, siEVI1-256: siRNA duplex; sense 5′-ccagauaaaugaucagauauu-3′ SEQ ID NO: 7, antisense SEQ ID NO: 8 (sense CCAGAUAAAUGAUCAGAUAUU; antisense UAUCUGAUCAUUUAUCUGGUU; listed as RNA, chemistry not given here) , is 0

Response to siRNA (% growth inhibition) recorded for this substance, siEVI1-979: siRNA duplex; sense 5′-gugcaaagacuguggacaauu-3′ SEQ ID NO: 9, antisense SEQ ID NO: 10 (sense GUGCAAAGACUGUGGACAAUU; antisense UUGUCCACAGUCUUUGCACUU; listed as RNA, chemistry not given here) , is 60
